The measured values listed here are drawn from paper PMC10141580.

Tested on: panel of 140 standard cancer cell lines
assay_remarks: ProliFiler-140 cancer cell line screen (CellTiterGlo, 72 h)
Type: cell-based
experimental_conditions: Mia PaCA 2 (Pancreas); listed as Dox; read-out: IC50 [M] (ProliFiler-140)
metric: IC50 (M)
Report only the number, with the unit M understood.

Req: I have this compound here, COc1cccc2c1C(=O)c1c(O)c3c(c(O)c1C2=O)C[C@@](O)(C(=O)CO)C[C@@H]3O[C@H]1C[C@H](N)[C@H](O)[C@H](C)O1 [doxorubicin, reference compound] , and I need its recorded IC50.
Resp: 7.4e-08

* * *

Tested on: NCI-60 standardized human tumor cell line panel
assay_remarks: cells
Assay type: cell-based
experimental_conditions: cell line RPMI-8226 (LE:RPMI-8226); TMI sheet; read-out: NCI-60 screening: Raw GI50
Form field: GI50 (one value per entry).
Report only the number, with the unit µM understood.

Worked examples, 3 compounds total:
COc1cc2cc(C(=O)N3C[C@@H](CCl)c4c3cc(OC(=O)N(CCC(=O)N3CCN(C)CC3)[C@H]3CCSSC3)c3ccccc43)[nH]c2c(OC)c1OC; 0.22
COc1cc2cc(C(=O)N3C[C@@H](CCl)c4c3cc(OC(=O)N(CCC(=O)N3CCN(C)CC3)C3CCCCC3)c3ccccc43)[nH]c2c(OC)c1OC; 1.5
COc1cc2cc(C(=O)N3CC(CCl)c4c3cc(OC(=O)N3CCN(C)C5CSSCC53)c3ccccc43)[nH]c2c(OC)c1OC (mixture of isomers) [Me-SS66C-CBI-TMI]; 0.16

Let us examine a further case.
Req: I have this compound here, COc1cc2cc(C(=O)N3CC(CCl)c4c3cc(OC(=O)N3CCN(C)C5CSSCC53)c3ccccc43)[nH]c2c(OC)c1OC (mixture of isomers) [Me-SS66T-CBI-TMI] , and I need its recorded GI50.
Resp: 0.034
